Data credit: ChEMBL document CHEMBL1961873

Test system: Protein-tyrosine kinase 6 (Homo sapiens) (UniProt Q13882)
Sequence (Q13882 whole entry, looked up): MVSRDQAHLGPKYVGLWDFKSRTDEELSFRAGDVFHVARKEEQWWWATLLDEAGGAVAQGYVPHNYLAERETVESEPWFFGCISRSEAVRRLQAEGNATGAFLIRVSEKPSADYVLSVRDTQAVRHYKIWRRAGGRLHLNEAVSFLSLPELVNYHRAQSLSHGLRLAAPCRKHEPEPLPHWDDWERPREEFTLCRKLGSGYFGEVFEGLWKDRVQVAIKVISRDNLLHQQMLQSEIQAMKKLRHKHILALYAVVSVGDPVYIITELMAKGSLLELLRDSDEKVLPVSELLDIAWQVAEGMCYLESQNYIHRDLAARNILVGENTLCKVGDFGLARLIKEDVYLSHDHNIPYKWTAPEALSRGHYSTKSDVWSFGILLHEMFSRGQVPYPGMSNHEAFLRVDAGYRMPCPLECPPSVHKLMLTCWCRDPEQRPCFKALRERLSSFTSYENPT
Condition set: at 1 µM
Description: GSK_PKIS: BRK mean inhibition at 1 uM [Nanosyn]
Measure: inhibition (%)
Please state the figure in %; there is no need to write the unit.

Check out these entries, answers already filled in.
mol_smiles=CS(=O)(=O)CCNCc1ccc(-c2ccc3ncnc(Nc4ccc(OCc5cccc(F)c5)c(C(F)(F)F)c4)c3c2)o1 test_system="Protein-tyrosine kinase 6 (Homo sapiens) (UniProt Q13882)" endpoint_result=5.42
mol_smiles=CCn1c(-c2nonc2N)nc2c(C#CC(C)(C)O)nc(CN3CCCC3)cc21 test_system="Protein-tyrosine kinase 6 (Homo sapiens) (UniProt Q13882)" endpoint_result=-1.74
mol_smiles=CCCN1CCC=C(c2ccc(Nc3nc(Nc4ccccc4C(N)=O)c4cc[nH]c4n3)c(C)c2)C1 test_system="Protein-tyrosine kinase 6 (Homo sapiens) (UniProt Q13882)" endpoint_result=17.4
mol_smiles=O=C1Nc2ccc(C(=O)c3ccco3)cc2C1=Cc1cc(Cl)c(O)c(Cl)c1 test_system="Protein-tyrosine kinase 6 (Homo sapiens) (UniProt Q13882)" endpoint_result=6.88
mol_smiles=COC(=O)Nc1nc2cc(Oc3ccc(NC(=O)Nc4cccc(C(=O)O)c4)cc3)ccc2[nH]1 test_system="Protein-tyrosine kinase 6 (Homo sapiens) (UniProt Q13882)" endpoint_result=-0.37

Need inhibition of `Cc1cc(O)cc(C)c1/C=C/c1cncc(-c2nn[nH]n2)c1` , thanks.
86.3

Check `COc1cc(C=NNc2ncnc3c2cnn3-c2ccccc2)ccc1O` too.
14.2
